These data points were gathered from ChEMBL document CHEMBL3352188.

System: Klebsiella pneumoniae
Assay: Bactericidal activity against Klebsiella pneumoniae MTCC 109 after 24 hrs by two fold dilution method
Format: functional
Conditions: MTCC 109, 24 h
Recorded Endpoint: MBC (µg/mL)

> print(dat)
                               query.smiles  unit.text  measurement
1  COc1ccc([C@@H](C)N[C@@H](C)[C@H](O)c2ccccc2)cc1.Cl      µg/mL          125
2  COc1ccc([C@H](C)N[C@H](C)[C@@H](O)c2ccccc2)cc1.Cl      µg/mL          125
3  CC(C)C[C@@H](C)N[C@@H](C)[C@H](O)c1ccccc1.Cl      µg/mL         62.5
4  CC[C@@H](N[C@@H](C)[C@H](O)c1ccccc1)c1ccccc1.Cl      µg/mL         15.6
5  CC(C)C[C@H](C)N[C@H](C)[C@@H](O)c1ccccc1.Cl      µg/mL          250
6  C[C@H](N[C@H](C)[C@@H](O)c1ccccc1)c1ccccc1.Cl      µg/mL          250
7  CC[C@H](N[C@H](C)[C@@H](O)c1ccccc1)c1ccccc1.Cl      µg/mL         62.5
8  C[C@H](N[C@H](C)c1ccccc1)[C@H](O)c1ccccc1.Cl      µg/mL          500
